- EXPERIMENTAL_CONTEXT: in methanol, 293.15 K

>  <ENTRY_SMILES>
CC(=O)c1c(C)c2cnc(Nc3ccc(N4CCNCC4)cn3)nc2n(C2CCCC2)c1=O

>  <solubility (mole fraction)>
1.1e-05

$$$$

---

- EXPERIMENTAL_CONTEXT: in water, 293.15 K

>  <ENTRY_SMILES>
CC(=O)c1c(C)c2cnc(Nc3ccc(N4CCNCC4)cn3)nc2n(C2CCCC2)c1=O

>  <solubility (mole fraction)>
9.4e-06

$$$$

---

- EXPERIMENTAL_CONTEXT: in pyridine, 333.15 K

>  <ENTRY_SMILES>
CC(=O)c1c(C)c2cnc(Nc3ccc(N4CCNCC4)cn3)nc2n(C2CCCC2)c1=O

>  <solubility (mole fraction)>
0.000236

$$$$

---

- EXPERIMENTAL_CONTEXT: in chlorobenzene, 303.15 K

>  <ENTRY_SMILES>
CC(=O)c1c(C)c2cnc(Nc3ccc(N4CCNCC4)cn3)nc2n(C2CCCC2)c1=O

>  <solubility (mole fraction)>
6.9e-05

$$$$

---

- EXPERIMENTAL_CONTEXT: in water, 298.15 K
MEASUREMENT_NAME: solubility (mole fraction)

>  <ENTRY_SMILES>
CC(=O)c1c(C)c2cnc(Nc3ccc(N4CCNCC4)cn3)nc2n(C2CCCC2)c1=O

>  <MEASUREMENT_NAME>
solubility (mole fraction)

>  <OBSERVED_MEASUREMENT>
1.18e-05

$$$$

---

- EXPERIMENTAL_CONTEXT: in o-xylene, 313.15 K

>  <ENTRY_SMILES>
CC(=O)c1c(C)c2cnc(Nc3ccc(N4CCNCC4)cn3)nc2n(C2CCCC2)c1=O

>  <solubility (mole fraction)>
5.57e-05

$$$$

---

- EXPERIMENTAL_CONTEXT: in acetone, 318.15 K
MEASUREMENT_NAME: solubility (mole fraction)

>  <ENTRY_SMILES>
CC(=O)c1c(C)c2cnc(Nc3ccc(N4CCNCC4)cn3)nc2n(C2CCCC2)c1=O

>  <OBSERVED_MEASUREMENT>
0.000165

$$$$

---

- EXPERIMENTAL_CONTEXT: in methanol, 333.15 K

>  <ENTRY_SMILES>
CC(=O)c1c(C)c2cnc(Nc3ccc(N4CCNCC4)cn3)nc2n(C2CCCC2)c1=O

>  <solubility (mole fraction)>
9.01e-05

$$$$

---

- EXPERIMENTAL_CONTEXT: in ethanol, 313.15 K

>  <ENTRY_SMILES>
CC(=O)c1c(C)c2cnc(Nc3ccc(N4CCNCC4)cn3)nc2n(C2CCCC2)c1=O

>  <solubility (mole fraction)>
4.12e-05

$$$$

---

- EXPERIMENTAL_CONTEXT: in DMSO, 308.15 K

>  <ENTRY_SMILES>
CC(=O)c1c(C)c2cnc(Nc3ccc(N4CCNCC4)cn3)nc2n(C2CCCC2)c1=O

>  <solubility (mole fraction)>
0.00012

$$$$

---

- EXPERIMENTAL_CONTEXT: in pyridine, 318.15 K

>  <ENTRY_SMILES>
CC(=O)c1c(C)c2cnc(Nc3ccc(N4CCNCC4)cn3)nc2n(C2CCCC2)c1=O

>  <solubility (mole fraction)>
0.000177

$$$$

---

- EXPERIMENTAL_CONTEXT: in acetone, 313.15 K
MEASUREMENT_NAME: solubility (mole fraction)

>  <ENTRY_SMILES>
CC(=O)c1c(C)c2cnc(Nc3ccc(N4CCNCC4)cn3)nc2n(C2CCCC2)c1=O

>  <MEASUREMENT_NAME>
solubility (mole fraction)

>  <OBSERVED_MEASUREMENT>
0.000138

$$$$

---

- EXPERIMENTAL_CONTEXT: in ethyl acetate, 303.15 K

>  <ENTRY_SMILES>
CC(=O)c1c(C)c2cnc(Nc3ccc(N4CCNCC4)cn3)nc2n(C2CCCC2)c1=O

>  <solubility (mole fraction)>
2.06e-05

$$$$

---

- EXPERIMENTAL_CONTEXT: in toluene, 303.15 K

>  <ENTRY_SMILES>
CC(=O)c1c(C)c2cnc(Nc3ccc(N4CCNCC4)cn3)nc2n(C2CCCC2)c1=O

>  <solubility (mole fraction)>
6.78e-05

$$$$

---

- EXPERIMENTAL_CONTEXT: in chlorobenzene, 318.15 K

>  <ENTRY_SMILES>
CC(=O)c1c(C)c2cnc(Nc3ccc(N4CCNCC4)cn3)nc2n(C2CCCC2)c1=O

>  <solubility (mole fraction)>
0.000148

$$$$

---

- EXPERIMENTAL_CONTEXT: in chlorobenzene, 323.15 K
MEASUREMENT_NAME: solubility (mole fraction)

>  <ENTRY_SMILES>
CC(=O)c1c(C)c2cnc(Nc3ccc(N4CCNCC4)cn3)nc2n(C2CCCC2)c1=O

>  <OBSERVED_MEASUREMENT>
0.000189

$$$$

---

- EXPERIMENTAL_CONTEXT: in o-xylene, 293.15 K

>  <ENTRY_SMILES>
CC(=O)c1c(C)c2cnc(Nc3ccc(N4CCNCC4)cn3)nc2n(C2CCCC2)c1=O

>  <solubility (mole fraction)>
3.21e-05

$$$$

---

- EXPERIMENTAL_CONTEXT: in pyridine, 303.15 K

>  <ENTRY_SMILES>
CC(=O)c1c(C)c2cnc(Nc3ccc(N4CCNCC4)cn3)nc2n(C2CCCC2)c1=O

>  <solubility (mole fraction)>
0.000127

$$$$

---

- EXPERIMENTAL_CONTEXT: in DMF, 333.15 K
MEASUREMENT_NAME: solubility (mole fraction)

>  <ENTRY_SMILES>
CC(=O)c1c(C)c2cnc(Nc3ccc(N4CCNCC4)cn3)nc2n(C2CCCC2)c1=O

>  <OBSERVED_MEASUREMENT>
0.000351

$$$$

---

- EXPERIMENTAL_CONTEXT: in DMF, 313.15 K
MEASUREMENT_NAME: solubility (mole fraction)

>  <ENTRY_SMILES>
CC(=O)c1c(C)c2cnc(Nc3ccc(N4CCNCC4)cn3)nc2n(C2CCCC2)c1=O

>  <MEASUREMENT_NAME>
solubility (mole fraction)

>  <OBSERVED_MEASUREMENT>
0.000166

$$$$

---

- EXPERIMENTAL_CONTEXT: in toluene, 323.15 K

>  <ENTRY_SMILES>
CC(=O)c1c(C)c2cnc(Nc3ccc(N4CCNCC4)cn3)nc2n(C2CCCC2)c1=O

>  <solubility (mole fraction)>
0.000129

$$$$

---

- EXPERIMENTAL_CONTEXT: in DMSO, 298.15 K

>  <ENTRY_SMILES>
CC(=O)c1c(C)c2cnc(Nc3ccc(N4CCNCC4)cn3)nc2n(C2CCCC2)c1=O

>  <solubility (mole fraction)>
7.82e-05

$$$$

---

- EXPERIMENTAL_CONTEXT: in ethyl acetate, 323.15 K
MEASUREMENT_NAME: solubility (mole fraction)

>  <ENTRY_SMILES>
CC(=O)c1c(C)c2cnc(Nc3ccc(N4CCNCC4)cn3)nc2n(C2CCCC2)c1=O

>  <MEASUREMENT_NAME>
solubility (mole fraction)

>  <OBSERVED_MEASUREMENT>
4.42e-05

$$$$

---

- EXPERIMENTAL_CONTEXT: in anisole, 303.15 K
MEASUREMENT_NAME: solubility (mole fraction)

>  <ENTRY_SMILES>
CC(=O)c1c(C)c2cnc(Nc3ccc(N4CCNCC4)cn3)nc2n(C2CCCC2)c1=O

>  <OBSERVED_MEASUREMENT>
1.51e-05

$$$$

---

- EXPERIMENTAL_CONTEXT: in m-xylene, 293.15 K
MEASUREMENT_NAME: solubility (mole fraction)

>  <ENTRY_SMILES>
CC(=O)c1c(C)c2cnc(Nc3ccc(N4CCNCC4)cn3)nc2n(C2CCCC2)c1=O

>  <OBSERVED_MEASUREMENT>
3.74e-05

$$$$

---

- EXPERIMENTAL_CONTEXT: in ethanol, 328.15 K
MEASUREMENT_NAME: solubility (mole fraction)

>  <ENTRY_SMILES>
CC(=O)c1c(C)c2cnc(Nc3ccc(N4CCNCC4)cn3)nc2n(C2CCCC2)c1=O

>  <OBSERVED_MEASUREMENT>
6.41e-05

$$$$

---

- EXPERIMENTAL_CONTEXT: in THF, 293.15 K

>  <ENTRY_SMILES>
CC(=O)c1c(C)c2cnc(Nc3ccc(N4CCNCC4)cn3)nc2n(C2CCCC2)c1=O

>  <solubility (mole fraction)>
7.14e-05

$$$$

---

- EXPERIMENTAL_CONTEXT: in pyridine, 328.15 K
MEASUREMENT_NAME: solubility (mole fraction)

>  <ENTRY_SMILES>
CC(=O)c1c(C)c2cnc(Nc3ccc(N4CCNCC4)cn3)nc2n(C2CCCC2)c1=O

>  <OBSERVED_MEASUREMENT>
0.000215

$$$$
